Target: MYCN G4 DNA
Experiment: Surface plasmon resonance (SPR) with immobilized biotinylated MYCN G4 DNA
Type: binding, human
Conditions: MYCN G4, Langmuir 1:1 model; read-out: SPR KD
// Kd lookup, one value per entry
Express the result in µM but write the number alone.

CCCN1CCN(c2nnc(-n3cccc3CNCCCN3CCCCCC3)s2)CC1: 11.7
COc1ccc(-c2noc(-c3ccc(NCCN4CCOCC4)nn3)n2)cc1: 8.2

Please look at the following compound next.
INPUT: Can you look up the measured Kd of "COc1ccc(-c2noc(-c3ccc(NCCCN(C)C)nn3)n2)cc1" for me?
OUTPUT: 9.2

Measured values drawn from patent US20240287054A1 for this set.
